- METHOD DESCRIPTION: Plasma pharmacokinetics
- Format: in vivo, human
- CONDITION LABEL: human, plasma, Cmax at steady state, geometric mean (geometric %CV), 600 mg ribociclib coadministered with binimetinib, 21-day cycle
EXPERIMENTAL READOUT: Cmax (ng/mL)
API: value field is a number in ng/mL; no unit string.

Can you share its Cmax? I mean this compound: CN(C)C(=O)c1cc2cnc(Nc3ccc(N4CCNCC4)cn3)nc2n1C1CCCC1
1910
